The measurements presented in this section are drawn from patent US20200361992A1.

- measuredTarget: T1, human ferroportin (SLC40A1) fused with GFP, stably expressed in HEK293 cells (human, UniProt Q9NP59 1-571)
- T1 sequence (looked up): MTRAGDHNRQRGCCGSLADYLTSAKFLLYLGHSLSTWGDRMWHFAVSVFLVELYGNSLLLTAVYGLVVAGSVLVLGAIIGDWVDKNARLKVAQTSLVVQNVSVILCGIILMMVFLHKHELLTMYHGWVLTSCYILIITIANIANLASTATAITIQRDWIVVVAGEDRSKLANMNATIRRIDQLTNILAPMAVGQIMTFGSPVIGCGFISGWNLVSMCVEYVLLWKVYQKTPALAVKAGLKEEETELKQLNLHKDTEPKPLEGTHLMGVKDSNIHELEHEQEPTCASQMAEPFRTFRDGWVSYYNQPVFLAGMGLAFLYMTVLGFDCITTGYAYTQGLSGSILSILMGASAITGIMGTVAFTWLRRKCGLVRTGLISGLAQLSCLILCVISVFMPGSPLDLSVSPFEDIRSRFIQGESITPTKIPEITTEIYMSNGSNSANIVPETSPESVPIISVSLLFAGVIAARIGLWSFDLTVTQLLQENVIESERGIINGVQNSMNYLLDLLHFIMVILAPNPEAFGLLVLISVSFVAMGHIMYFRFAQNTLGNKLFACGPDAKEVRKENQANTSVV
- assayNotes: cell-based or functional assay
Positions of bridges follow the written chain, without caps; N, C: chain ends. Non-standard residues stand in square brackets, D forms with d. Groups on a side chain read outwards from the residue. Primed or numbered codes have the meaning given here. *: point of attachment. PEG4′ = bifunctional PEG linker with 4 polyethylene glycol units; PEG12 = NCCOCCOCCOCCOCCOCCOCCOCCOCCOCCOCCOCCOCCC(=O)O; Phe(4-tBu) = CC(C)(C)c1ccc(C[C@H](N)C(=O)O)cc1; Dip = N[C@H](C(=O)O)C(c1ccccc1)c1ccccc1; Palmitoyl = CCCCCCCCCCCCCCCC(=O)*; β3hF = N[C@H](CC(=O)O)Cc1ccccc1; Isovaleryl = CC(C)CC(=O)*; PEG2′ = not defined here; Npc = nipecotic acid; Ahx = NCCCCCC(=O)O
FPN IC50 overview
Provide only the numeric value, understood in nM.

Worked cases, FPN IC50 given:
binder: Isovaleryl-DTHFPCI[dK]FK([PEG12-Palmitoyl])CK-NH2 (disulfide 6-11 (inferred)) [Compd ID 78]
FPN IC50 [nM]: 17
//
binder: DTHXPCIKXKC (Isovaleric acid-DTH-[Dpa]-PCI-[(D)Lys]-[b-hPhe]-[Lys(Dap-Palm)]-C-NH2) [Compd ID 160]
FPN IC50 [nM]: 4
//
binder: Isovaleryl-DTHFPCI[dK]FK([PEG4′-Ahx-Palmitoyl])KC-NH2 (disulfide 6-12 (inferred)) [Compd ID 92]
FPN IC50 [nM]: 21

Request: So what does the record say about FPN IC50 for Isovaleryl-DTHFPCIFK([PEG12-Palmitoyl])KC-NH2 (disulfide 6-11 (inferred)) [Compd ID 106] ?
Result: 40

Request: So what does the record say about FPN IC50 for Isovaleryl-DTHFPCI[dK]FK([PEG2′-PEG2′-Ahx-Palmitoyl])KC-NH2 (disulfide 6-12 (inferred)) [Compd ID 90] ?
Result: 11

Request: So what does the record say about FPN IC50 for Isovaleryl-DTHFPCI[dK]FK(Palmitoyl)C-NH2 (disulfide 6-11 (inferred)) [Compd ID 30] ?
Result: 31

Request: So what does the record say about FPN IC50 for Isovaleryl-DTHFPCI[dK]FK([PEG4′-Palmitoyl])C-NH2 (disulfide 6-11 (inferred)) [Compd ID 22] ?
Result: 17

Request: So what does the record say about FPN IC50 for Isovaleryl-DTH[Dip][Npc]CI[dK][Phe(4-tBu)]K([PEG12-Palmitoyl])[dK]C-NH2 (disulfide 6-12 (inferred)) [Compd ID 149] ?
Result: 17

Request: So what does the record say about FPN IC50 for Isovaleryl-DTHFPCIK(Ac)FK([PEG12-Palmitoyl])C-NH2 (disulfide 6-11 (inferred)) [Compd ID 14] ?
Result: 3

Request: So what does the record say about FPN IC50 for Isovaleryl-DTHF[Npc]CI[dK]FK([PEG12-Palmitoyl])[dK]C-NH2 (disulfide 6-12 (inferred)) [Compd ID 118] ?
Result: 6

Request: So what does the record say about FPN IC50 for Isovaleryl-DTH[Dip]PCI[β3hF]K([PEG12-Palmitoyl])[dK]C-NH2 (disulfide 6-11 (inferred)) [Compd ID 148] ?
Result: 12

Request: So what does the record say about FPN IC50 for Isovaleryl-DTHFPCI[dK]FK([PEG12-Palmitoyl])PPRSCK-NH2 (disulfide 6-15 (inferred); not fully specified) [Compd ID 76] ?
Result: 16

Request: So what does the record say about FPN IC50 for Isovaleryl-DTH[Dip][Npc]CI[dK][Phe(4-tBu)]K([PEG12-Palmitoyl])C[dK]-NH2 (disulfide 6-11 (inferred)) [Compd ID 150] ?
Result: 22

Request: So what does the record say about FPN IC50 for Isovaleryl-DTHFPCI[dK]FK([PEG12-Palmitoyl])PRSKCK-NH2 (disulfide 6-15 (inferred)) [Compd ID 75] ?
Result: 14
